- System: MALME-3M melanoma
- method.notes: NCI tumour cell line growth inhibition, 48 h
Label y for high-side TGI (at or above 30 µM) and n for low-side TGI (below it).

Look over these answered cases.
INSERT INTO measurements (compound, category) VALUES
  ('NC(=O)c1cc(I)ccc1NC(=O)/C=C/c1ccccc1Cl', 'n'),
  ('COC(=O)C(=O)C(C#N)c1cccc(Cl)c1 (stereo not given)', 'y'),
  ('CCN(CC)CCCC(C)Nc1c2ccc(Cl)cc2nc2cc(Cl)ccc12 (stereo not given)', 'n');

In: Hi, just wondering whether COc1ccc(-c2[nH]c(-c3ccc(OC)cc3)c(-c3ccccn3)c2-c2ccccn2)cc1 shows TGI of 30 µM or higher.
Out: y

In: Okay, and O=C1C[C@@H]2[C@@H](CCC23CCCC3)N1 ?
Out: y

In: Okay, and COc1cc(/C=N/N=C(\N)NO)ccc1O ?
Out: y

In: Okay, and CCSc1nc(NC(C)c2ccccc2)c2cnn(CO)c2n1 (stereo not given) ?
Out: y

In: Okay, and N#CC(C(=O)CCC(=O)Nc1ccc(Cl)cc1)c1ccc(Cl)cc1 (stereo not given) ?
Out: y

In: Okay, and O=[N+]([O-])c1ccc(Cc2nc3cc4ccccc4cc3[nH]2)cc1C(F)(F)F ?
Out: n

In: Okay, and O=c1ccn(Cc2ccccc2CCl)c(=O)[nH]1 ?
Out: y
